TEST_SYSTEM: D(2) dopamine receptor (Homo sapiens)
Sequence (P14416 whole entry): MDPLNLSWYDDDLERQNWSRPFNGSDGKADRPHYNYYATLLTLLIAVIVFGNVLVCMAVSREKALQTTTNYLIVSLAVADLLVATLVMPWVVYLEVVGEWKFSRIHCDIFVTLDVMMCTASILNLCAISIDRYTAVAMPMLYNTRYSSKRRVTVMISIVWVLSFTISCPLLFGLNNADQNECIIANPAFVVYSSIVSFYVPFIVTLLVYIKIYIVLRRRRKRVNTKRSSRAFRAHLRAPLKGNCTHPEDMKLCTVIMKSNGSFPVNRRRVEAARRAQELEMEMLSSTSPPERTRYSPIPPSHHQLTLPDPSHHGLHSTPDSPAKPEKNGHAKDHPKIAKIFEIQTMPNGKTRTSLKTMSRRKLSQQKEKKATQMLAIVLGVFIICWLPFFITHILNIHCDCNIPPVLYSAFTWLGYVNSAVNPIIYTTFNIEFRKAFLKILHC
TEST_NAME: Displacement of [3H]spiperone from human cloned dopamine D2(short) receptor expressed in CHO cells
Assay type: cell-based
PROPERTY: Ki (nM)
Numbers only here, please. The scale is nM.

Query: Report measured Ki; entry is Clc1ccc(N2CCN(Cc3cnn(-c4ccccc4)c3)CC2)cc1
Result: 1900

----------
TEST_SYSTEM: D(3) dopamine receptor (Homo sapiens, UniProt P35462)
Sequence (P35462 whole entry): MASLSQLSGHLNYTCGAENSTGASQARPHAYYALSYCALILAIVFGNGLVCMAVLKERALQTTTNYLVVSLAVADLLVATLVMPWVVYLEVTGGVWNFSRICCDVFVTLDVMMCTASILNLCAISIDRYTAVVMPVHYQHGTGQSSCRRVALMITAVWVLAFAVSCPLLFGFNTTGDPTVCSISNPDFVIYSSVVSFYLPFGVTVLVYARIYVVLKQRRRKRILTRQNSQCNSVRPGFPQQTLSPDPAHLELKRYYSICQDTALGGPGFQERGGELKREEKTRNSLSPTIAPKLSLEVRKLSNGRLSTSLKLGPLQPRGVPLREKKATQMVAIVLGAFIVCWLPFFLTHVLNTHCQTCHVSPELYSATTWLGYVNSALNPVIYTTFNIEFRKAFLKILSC
TEST_NAME: Displacement of [3H]spiperone from human cloned dopamine D3 receptor expressed in CHO cells
Type: cell-based
Below, each entry is listed with its recorded pKi.
Value format note: pKi is -log10 of concentration (mol/L); just state the number.

Query: Report measured pKi; entry is COc1ccccc1N1CCN(Cc2cnn(-c3ccccn3)c2)CC1
Result: 7.14

Query: Report measured pKi; entry is c1ccc(N2CCN(Cc3cnn(-c4ccccc4)c3)CC2)cc1
Result: 6.85

Query: Report measured pKi; entry is Cc1nn(-c2ccccc2)cc1CN1CCN(c2ccccc2)CC1
Result: 6.44

Query: Report measured pKi; entry is C1=C(c2ccccc2)CCN(Cc2cn(-c3ccccc3)nn2)C1
Result: 7.03

Query: Report measured pKi; entry is c1ccc(N2CCN(Cc3cnn(-c4ccccn4)c3)CC2)cc1
Result: 6.80

Query: Report measured pKi; entry is c1ccc(N2CCN(Cc3cn(-c4ccccc4)nn3)CC2)cc1
Result: 5.92

Query: Report measured pKi; entry is C1=C(c2ccccc2)CCN(Cc2cnn(-c3ccccc3)c2)C1
Result: 7.48

Query: Report measured pKi; entry is COc1ccccc1N1CCN(Cc2cnn(-c3ccccc3)c2)CC1
Result: 7.46

Query: Report measured pKi; entry is c1ccc(-c2c[nH]c(CN3CCN(c4ccccc4)CC3)c2)cc1
Result: 6.29

Query: Report measured pKi; entry is COc1ccccc1N1CCN(Cc2cn(-c3ccccc3)nn2)CC1
Result: 6.47

Query: Report measured pKi; entry is c1ccc(N2CCN(Cc3ccc(-n4cccn4)cc3)CC2)cc1
Result: 5.68

Query: Report measured pKi; entry is Cc1c(CN2CCN(c3ccccc3)CC2)cnn1-c1ccccc1
Result: 6.49

Query: Report measured pKi; entry is c1ccc(-n2cc(CN3CCN(c4ncccn4)CC3)cn2)cc1
Result: 5.54
